System: muscarinic receptors
Test: Muscarinic binding: displacement of [3H]N-methylscopolamine, rat frontal cortical membranes
Details: 10^−6 M test compound, single determination, [3H]N-methylscopolamine
Quick rule for you: Muscarinic % displacement at 10^−6 M under 10% gets Yes, anything else gets No.

[[record]]
molecule = "OCC1=C(c2cc3ccccc3s2)N2CCN=C2S1 [Example 15]"
study_system = "muscarinic receptors"
group_label = "Yes"

[[record]]
molecule = "Br.Clc1cccc2sc(C3=CSC4=NCCN34)cc12 [Example 1]"
study_system = "muscarinic receptors"
group_label = "Yes"

[[record]]
molecule = "CSC1=C(c2ccc3sccc3c2)N2CCN=C2S1 [Example 30]"
study_system = "muscarinic receptors"
group_label = "No"

[[record]]
molecule = "Br.COc1cccc2cc(C3=C(C)SC4=NCCN43)sc12 [Example 26]"
study_system = "muscarinic receptors"
group_label = "Yes"

[[record]]
molecule = "CSC1=C(c2cc3ccccc3s2)N2CCN=C2S1 [Example 19]"
study_system = "muscarinic receptors"
group_label = "Yes"

[[record]]
molecule = "OCC1=C(c2ccc3sccc3c2)N2CCN=C2S1 [Example 28]"
study_system = "muscarinic receptors"
group_label = "Yes"

[[record]]
molecule = "Br.CC1=C(c2cc3c(C)cccc3s2)N2CCN=C2S1 [Example 16]"
study_system = "muscarinic receptors"
group_label = "Yes"

[[record]]
molecule = "Br.Oc1cccc2sc(C3=CSC4=NCCN34)cc12 [Example 12]"
study_system = "muscarinic receptors"
group_label = "No"

[[record]]
molecule = "Br.CC1=C(c2cc3cccc(Cl)c3s2)N2CCN=C2S1 [Example 20]"
study_system = "muscarinic receptors"
group_label = "No"

[[record]]
molecule = "Cl.Fc1cccc2sc(C3=CSC4=NCCN34)cc12 [Example 5]"
study_system = "muscarinic receptors"
group_label = "No"

[[record]]
molecule = "Br.CC1=C(c2ccc3ccsc3c2)N2CCN=C2S1 [Example 37]"
study_system = "muscarinic receptors"
group_label = "Yes"

[[record]]
molecule = "CCC1=C(c2ccc3sccc3c2)N2CCN=C2S1.O=C(O)/C=C/C(=O)O [Example 31]"
study_system = "muscarinic receptors"
group_label = "No"

[[record]]
molecule = "Br.CC1=C(c2ccc3sccc3c2)N2CCN=C2S1 [Example 21]"
study_system = "muscarinic receptors"
group_label = "Yes"

[[record]]
molecule = "Cc1cccc2sc(C3=CSC4=NCCN34)cc12.Cl [Example 14]"
study_system = "muscarinic receptors"
group_label = "Yes"

[[record]]
molecule = "CC1=C(c2cccc3sc(C)cc23)N2CCN=C2S1.Cl [Example 33]"
study_system = "muscarinic receptors"
group_label = "No"

[[record]]
molecule = "Br.CC1=C(c2cc3ccccc3s2)N2CCN=C2S1 [Example 6]"
study_system = "muscarinic receptors"
group_label = "Yes"

[[record]]
molecule = "OCC1=C(c2cccc3sccc23)N2CCN=C2S1 [Example 3]"
study_system = "muscarinic receptors"
group_label = "Yes"

[[record]]
molecule = "Br.CC1(c2cc3cc(F)ccc3s2)CSC2=NCCN21 (stereo not drawn) [Example 27]"
study_system = "muscarinic receptors"
group_label = "Yes"

[[record]]
molecule = "OCC1=C(c2cc3c(Cl)cccc3s2)N2CCN=C2S1 [Example 4]"
study_system = "muscarinic receptors"
group_label = "Yes"

[[record]]
molecule = "CC1=C(c2cccc3ccsc23)N2CCN=C2S1.Cl [Example 23]"
study_system = "muscarinic receptors"
group_label = "Yes"

[[record]]
molecule = "Br.CC1=C(c2cc3c(Cl)cccc3s2)N2CCN=C2S1 [Example 10]"
study_system = "muscarinic receptors"
group_label = "No"

[[record]]
molecule = "Br.CC1=C(c2cc3c(Cl)cccc3s2)N2CCCN=C2S1 [Example 17]"
study_system = "muscarinic receptors"
group_label = "No"

[[record]]
molecule = "Br.CC1=C(c2cc3c(F)cccc3s2)N2CCN=C2S1 [Example 7]"
study_system = "muscarinic receptors"
group_label = "No"

[[record]]
molecule = "C1=C(c2cccc3sccc23)N2CCN=C2S1.Cl [Example 2]"
study_system = "muscarinic receptors"
group_label = "No"

[[record]]
molecule = "Br.CCC1=C(c2cc3c(Cl)cccc3s2)N2CCN=C2S1 [Example 18]"
study_system = "muscarinic receptors"
group_label = "No"

[[record]]
molecule = "Br.CC1=C(c2cccc3sccc23)N2CCN=C2S1 [Example 8]"
study_system = "muscarinic receptors"
group_label = "Yes"

[[record]]
molecule = "Br.CCC1=C(c2cc3cc(Cl)ccc3s2)N2CCN=C2S1 [Example 11]"
study_system = "muscarinic receptors"
group_label = "No"

[[record]]
molecule = "Br.CC1=C(c2cc3c(Cl)c(Cl)ccc3s2)N2CCN=C2S1 [Example 24]"
study_system = "muscarinic receptors"
group_label = "Yes"

[[record]]
molecule = "Br.CC1=C(c2ccc(F)c3sccc23)N2CCN=C2S1 [Example 38]"
study_system = "muscarinic receptors"
group_label = "No"

[[record]]
molecule = "CC1=C(c2cccc3sccc23)N2CCN=C2S1.Cl [Example 9]"
study_system = "muscarinic receptors"
group_label = "No"

